Test system: 276233-004-R-J1-PDC complex spheroid viability
Assay: Anticancer human tumor 276233-004-R-J1-PDC patient-derived colon adenocarcinoma cell line growth inhibition [GQUAD]
Settings: curve of first compound; second compound 3.16 µM
Observation Type: IC50

CC1COCCN1c1cc(C2(S(C)(=N)=O)CC2)nc(-c2ccnc3[nH]ccc23)n1 (stereo unspecified) + Cc1[nH]c2ccc(F)cc2c1-c1nc2c3cccnc3c3ncccc3c2[nH]1    7860 nM
CC1COCCN1c1cc(-c2ccnn2C)c2ccnc(-c3ccn[nH]3)c2n1 (stereo unspecified) + Cc1[nH]c2ccc(F)cc2c1-c1nc2c3cccnc3c3ncccc3c2[nH]1    < 31.6 nM
CC(C)n1c(=O)n(C)c2cnc3cc(F)c(-c4ccc(OCCCN5CCCCC5)nc4)cc3c21 + CN(C)c1ccc(Nc2c3ccc(NC(=O)CCN4CCCC4)cc3nc3cc(NC(=O)CCN4CCCC4)ccc23)cc1    > 10000 nM
CCc1c2c(nc3ccc(O)cc13)-c1cc3c(c(=O)n1C2)COC(=O)[C@]3(O)CC + Cc1cnc(CNC(=O)c2c(=O)c3ccc(N4CCCN(C)CC4)nc3n3c2sc2ccccc23)cn1    > 316 nM
Cc1[nH]c2ccccc2c1CCNCc1ccc(/C=C/C(=O)NO)cc1 + Cc1[nH]c2ccc(F)cc2c1-c1nc2c3cccnc3c3ncccc3c2[nH]1    < 0.999 nM
O=c1[nH]cc(F)c(=O)[nH]1 + Cc1[nH]c2ccc(F)cc2c1-c1nc2c3cccnc3c3ncccc3c2[nH]1    > 10000 nM
CC(C)(O)C1CCC(Nc2ccc3ncc(-c4cccc(C(F)(F)F)c4)n3n2)CC1 (stereo unspecified) + Cc1[nH]c2ccc(F)cc2c1-c1nc2c3cccnc3c3ncccc3c2[nH]1    < 31.6 nM
COc1ccc([C@@H](O)c2cc(-c3ncnc4cc(N5CCOCC5)ccc34)c(F)cc2Cl)nn1 + Cc1cnc(CNC(=O)c2c(=O)c3ccc(N4CCCN(C)CC4)nc3n3c2sc2ccccc23)cn1    1770 nM
C=CCn1c(=O)c2cnc(Nc3ccc(N4CCN(C)CC4)cc3)nc2n1-c1cccc(C(C)(C)O)n1 + CN(C)c1ccc(Nc2c3ccc(NC(=O)CCN4CCCC4)cc3nc3cc(NC(=O)CCN4CCCC4)ccc23)cc1    459 nM
COc1ccc([C@@H](O)c2cc(-c3ncnc4cc(N5CCOCC5)ccc34)c(F)cc2Cl)nn1 + Cc1[nH]c2ccc(F)cc2c1-c1nc2c3cccnc3c3ncccc3c2[nH]1    424 nM
CC1COCCN1c1cc(-c2ccnn2C)c2ccnc(-c3ccn[nH]3)c2n1 (stereo unspecified) + Cc1cnc(CNC(=O)c2c(=O)c3ccc(N4CCCN(C)CC4)nc3n3c2sc2ccccc23)cn1    3320 nM
CC[C@@]1(O)C(=O)OCc2c1cc1n(c2=O)Cc2cc3c(CN(C)C)c(O)ccc3nc2-1 + CN(C)c1ccc(Nc2c3ccc(NC(=O)CCN4CCCC4)cc3nc3cc(NC(=O)CCN4CCCC4)ccc23)cc1    93 nM
COc1cc(C2c3cc4c(cc3C(OC3OC5COC(C)OC5C(O)C3O)C3COC(=O)C23)OCO4)cc(OC)c1O (stereo unspecified) + CN(C)c1ccc(Nc2c3ccc(NC(=O)CCN4CCCC4)cc3nc3cc(NC(=O)CCN4CCCC4)ccc23)cc1    > 10000 nM
CC(C)(O)C1CCC(Nc2ccc3ncc(-c4cccc(C(F)(F)F)c4)n3n2)CC1 (stereo unspecified) + Cc1cnc(CNC(=O)c2c(=O)c3ccc(N4CCCN(C)CC4)nc3n3c2sc2ccccc23)cn1    994 nM
CC(=O)O[C@H]1C(=O)[C@@]2(C)[C@H]([C@H](OC(=O)c3ccccc3)[C@]3(O)C[C@H](OC(=O)[C@H](O)[C@@H](NC(=O)c4ccccc4)c4ccccc4)C(C)=C1C3(C)C)[C@]1(OC(C)=O)CO[C@@H]1C[C@@H]2O + Cc1cnc(CNC(=O)c2c(=O)c3ccc(N4CCCN(C)CC4)nc3n3c2sc2ccccc23)cn1    > 10000 nM
Nc1ccn(C2OC(CO)C(O)C2(F)F)c(=O)n1 (stereo unspecified) + Cc1cnc(CNC(=O)c2c(=O)c3ccc(N4CCCN(C)CC4)nc3n3c2sc2ccccc23)cn1    > 10000 nM
CC[C@@]1(O)C(=O)OCc2c1cc1n(c2=O)Cc2cc3c(CN(C)C)c(O)ccc3nc2-1 + Cc1[nH]c2ccc(F)cc2c1-c1nc2c3cccnc3c3ncccc3c2[nH]1    < 0.999 nM
O=C(c1cc(Cc2n[nH]c(=O)c3ccccc23)ccc1F)N1CCN(C(=O)C2CC2)CC1 + CN(C)c1ccc(Nc2c3ccc(NC(=O)CCN4CCCC4)cc3nc3cc(NC(=O)CCN4CCCC4)ccc23)cc1    > 10000 nM
CC1COCCN1c1cc(-c2ccnn2C)c2ccnc(-c3ccn[nH]3)c2n1 (stereo unspecified) + CN(C)c1ccc(Nc2c3ccc(NC(=O)CCN4CCCC4)cc3nc3cc(NC(=O)CCN4CCCC4)ccc23)cc1    145 nM
Nc1ccn(C2OC(CO)C(O)C2(F)F)c(=O)n1 (stereo unspecified) + Cc1[nH]c2ccc(F)cc2c1-c1nc2c3cccnc3c3ncccc3c2[nH]1    < 31.6 nM
Cc1cccc(N(C)C(=O)C2C(O)CCN2c2nc(C)cc(C(F)(F)F)c2C#N)c1 (stereo unspecified) + CN(C)c1ccc(Nc2c3ccc(NC(=O)CCN4CCCC4)cc3nc3cc(NC(=O)CCN4CCCC4)ccc23)cc1    > 10000 nM

----------
Consider the following compounds and their measured viability, T/C readings.
Test system: 276233-004-R-J1-PDC complex spheroid viability
Assay: Anticancer human tumor 276233-004-R-J1-PDC cell line growth inhibition [GQUAD];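 also: spheroids exposed to drugs for seven days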;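 as to viability, T/C: 100% = DMSO vehicle control viability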
Conditions: second compound 1 µM; first compound 0.316 µM; stronger effect = lower value
Observation Type: viability, T/C (%)

CCc1c2c(nc3ccc(O)cc13)-c1cc3c(c(=O)n1C2)COC(=O)[C@]3(O)CC + Cc1cnc(CNC(=O)c2c(=O)c3ccc(N4CCCN(C)CC4)nc3n3c2sc2ccccc23)cn1    76.2
COc1ncnc(C2CC2)c1-c1ncc2cnn(Cc3ccc(-c4nc(C(F)(F)F)cn4C(C)C)cc3)c2n1 + Cc1cnc(CNC(=O)c2c(=O)c3ccc(N4CCCN(C)CC4)nc3n3c2sc2ccccc23)cn1    81.5
C=CCn1c(=O)c2cnc(Nc3ccc(N4CCN(C)CC4)cc3)nc2n1-c1cccc(C(C)(C)O)n1 + CN(C)c1ccc(Nc2c3ccc(NC(=O)CCN4CCCC4)cc3nc3cc(NC(=O)CCN4CCCC4)ccc23)cc1    49.7
CC(C)n1c(=O)n(C)c2cnc3cc(F)c(-c4ccc(OCCCN5CCCCC5)nc4)cc3c21 + Cc1[nH]c2ccc(F)cc2c1-c1nc2c3cccnc3c3ncccc3c2[nH]1    82.2
CC1COCCN1c1cc(-c2ccnn2C)c2ccnc(-c3ccn[nH]3)c2n1 (stereo unspecified) + CN(C)c1ccc(Nc2c3ccc(NC(=O)CCN4CCCC4)cc3nc3cc(NC(=O)CCN4CCCC4)ccc23)cc1    44.7
Cc1cccc(N(C)C(=O)C2C(O)CCN2c2nc(C)cc(C(F)(F)F)c2C#N)c1 (stereo unspecified) + Cc1[nH]c2ccc(F)cc2c1-c1nc2c3cccnc3c3ncccc3c2[nH]1    71.6

----------
Consider the following compounds and their measured viability, T/C readings.
Test system: 276233-004-R-J1-PDC complex spheroid viability
Experiment: Anticancer human tumor 276233-004-R-J1-PDC cell line growth inhibition [GQUAD];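 also: spheroids exposed to drugs for seven days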;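 as to viability, T/C: 100% = DMSO vehicle control viability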
Details: second compound 0.0316 µM; first compound 10 µM; stronger effect = lower value
Observation Type: viability, T/C

COc1ccc([C@@H](O)c2cc(-c3ncnc4cc(N5CCOCC5)ccc34)c(F)cc2Cl)nn1 + Cc1cnc(CNC(=O)c2c(=O)c3ccc(N4CCCN(C)CC4)nc3n3c2sc2ccccc23)cn1    48.4%
CC1COCCN1c1cc(-c2ccnn2C)c2ccnc(-c3ccn[nH]3)c2n1 (stereo not drawn) + CN(C)c1ccc(Nc2c3ccc(NC(=O)CCN4CCCC4)cc3nc3cc(NC(=O)CCN4CCCC4)ccc23)cc1    47.9%
C=CC(=O)N1CCN(c2nc(=O)n(-c3c(C)ccnc3C(C)C)c3nc(-c4c(O)cccc4F)c(F)cc23)C(C)C1 (stereo not drawn) + CN(C)c1ccc(Nc2c3ccc(NC(=O)CCN4CCCC4)cc3nc3cc(NC(=O)CCN4CCCC4)ccc23)cc1    87.6%

----------
Tested on: 276233-004-R-J1-PDC complex spheroid viability
Test: Anticancer human tumor 276233-004-R-J1-PDC cell line growth inhibition [GQUAD];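 also: spheroids exposed to drugs for seven days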;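 as to viability, T/C: 100% = DMSO vehicle control viability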
Conditions: second compound 3.16 µM; first compound 3.16 µM; stronger effect = lower value
Binarize viability, T/C at 50%; below is TRUE, at or above is FALSE.

C#Cc1c(F)ccc2cc(O)cc(-c3ncc4c(N5CC6CCC(C5)N6)nc(OCC56CCCN5CC(F)C6)nc4c3F)c12 (stereo unspecified) + Cc1[nH]c2ccc(F)cc2c1-c1nc2c3cccnc3c3ncccc3c2[nH]1    TRUE
CC(C)(O)C1CCC(Nc2ccc3ncc(-c4cccc(C(F)(F)F)c4)n3n2)CC1 (stereo unspecified) + Cc1[nH]c2ccc(F)cc2c1-c1nc2c3cccnc3c3ncccc3c2[nH]1    TRUE
COc1cccc2c1C(=O)c1c(O)c3c(c(O)c1C2=O)CC(O)(C(=O)CO)CC3OC1CC(N)C(O)C(C)O1 (stereo unspecified) + Cc1cnc(CNC(=O)c2c(=O)c3ccc(N4CCCN(C)CC4)nc3n3c2sc2ccccc23)cn1    TRUE
C=CC(=O)N1CCN(c2nc(=O)n(-c3c(C)ccnc3C(C)C)c3nc(-c4c(O)cccc4F)c(F)cc23)C(C)C1 (stereo unspecified) + Cc1cnc(CNC(=O)c2c(=O)c3ccc(N4CCCN(C)CC4)nc3n3c2sc2ccccc23)cn1    FALSE
Nc1ccn(C2OC(CO)C(O)C2(F)F)c(=O)n1 (stereo unspecified) + Cc1[nH]c2ccc(F)cc2c1-c1nc2c3cccnc3c3ncccc3c2[nH]1    FALSE
CC1COCCN1c1cc(C2(S(C)(=N)=O)CC2)nc(-c2ccnc3[nH]ccc23)n1 (stereo unspecified) + CN(C)c1ccc(Nc2c3ccc(NC(=O)CCN4CCCC4)cc3nc3cc(NC(=O)CCN4CCCC4)ccc23)cc1    FALSE
Nc1ccn(C2OC(CO)C(O)C2(F)F)c(=O)n1 (stereo unspecified) + Cc1cnc(CNC(=O)c2c(=O)c3ccc(N4CCCN(C)CC4)nc3n3c2sc2ccccc23)cn1    FALSE
CC(C)(O)C1CCC(Nc2ccc3ncc(-c4cccc(C(F)(F)F)c4)n3n2)CC1 (stereo unspecified) + Cc1cnc(CNC(=O)c2c(=O)c3ccc(N4CCCN(C)CC4)nc3n3c2sc2ccccc23)cn1    TRUE
O=C(NO)c1cnc(N2CCN(S(=O)(=O)c3ccc4ccccc4c3)CC2)nc1 + Cc1cnc(CNC(=O)c2c(=O)c3ccc(N4CCCN(C)CC4)nc3n3c2sc2ccccc23)cn1    TRUE
C=CCn1c(=O)c2cnc(Nc3ccc(N4CCN(C)CC4)cc3)nc2n1-c1cccc(C(C)(C)O)n1 + Cc1[nH]c2ccc(F)cc2c1-c1nc2c3cccnc3c3ncccc3c2[nH]1    TRUE
CCCS(=O)(=O)Nc1ccc(F)c(C(=O)c2c[nH]c3ncc(-c4ccc(Cl)cc4)cc23)c1F + Cc1cnc(CNC(=O)c2c(=O)c3ccc(N4CCCN(C)CC4)nc3n3c2sc2ccccc23)cn1    FALSE
CC1COCCN1c1cc(-c2ccnn2C)c2ccnc(-c3ccn[nH]3)c2n1 (stereo unspecified) + Cc1[nH]c2ccc(F)cc2c1-c1nc2c3cccnc3c3ncccc3c2[nH]1    TRUE
Cc1cccc(N(C)C(=O)C2C(O)CCN2c2nc(C)cc(C(F)(F)F)c2C#N)c1 (stereo unspecified) + Cc1cnc(CNC(=O)c2c(=O)c3ccc(N4CCCN(C)CC4)nc3n3c2sc2ccccc23)cn1    FALSE
CC1COCCN1c1cc(C2(O)CC3CCC(C2)O3)c2cnn(-c3ccn[nH]3)c2n1 (stereo unspecified) + Cc1[nH]c2ccc(F)cc2c1-c1nc2c3cccnc3c3ncccc3c2[nH]1    TRUE
COc1cccc2c1C(=O)c1c(O)c3c(c(O)c1C2=O)CC(O)(C(=O)CO)CC3OC1CC(N)C(O)C(C)O1 (stereo unspecified) + Cc1[nH]c2ccc(F)cc2c1-c1nc2c3cccnc3c3ncccc3c2[nH]1    TRUE
COc1cc(C2c3cc4c(cc3C(OC3OC5COC(C)OC5C(O)C3O)C3COC(=O)C23)OCO4)cc(OC)c1O (stereo unspecified) + Cc1[nH]c2ccc(F)cc2c1-c1nc2c3cccnc3c3ncccc3c2[nH]1    TRUE
CC1COCCN1c1cc(C2(S(C)(=N)=O)CC2)nc(-c2ccnc3[nH]ccc23)n1 (stereo unspecified) + Cc1[nH]c2ccc(F)cc2c1-c1nc2c3cccnc3c3ncccc3c2[nH]1    FALSE
CC1COCCN1c1cc(C2(O)CC3CCC(C2)O3)c2cnn(-c3ccn[nH]3)c2n1 (stereo unspecified) + CN(C)c1ccc(Nc2c3ccc(NC(=O)CCN4CCCC4)cc3nc3cc(NC(=O)CCN4CCCC4)ccc23)cc1    TRUE
COc1cc(C2c3cc4c(cc3C(OC3OC5COC(C)OC5C(O)C3O)C3COC(=O)C23)OCO4)cc(OC)c1O (stereo unspecified) + CN(C)c1ccc(Nc2c3ccc(NC(=O)CCN4CCCC4)cc3nc3cc(NC(=O)CCN4CCCC4)ccc23)cc1    FALSE
O=c1[nH]cc(F)c(=O)[nH]1 + Cc1cnc(CNC(=O)c2c(=O)c3ccc(N4CCCN(C)CC4)nc3n3c2sc2ccccc23)cn1    FALSE
